Test system: CCRF-CEM
Test: NCI tumour cell line growth inhibition, 48 h
The source made the active and inactive calls. Cut-off read from the data, not from the text of the source: active = GI50 up to about 1.1 µM and inactive = higher.
I would appreciate it if you answered using one of these outcomes: YES for active, NO for inactive

Task: So what was the verdict on O=NN(CCCl)C(=O)NC1CCC(CC2CCC(NC(=O)N(CCCl)N=O)CC2)CC1 (centres undefined) in this test?
Output: YES

Task: So what was the verdict on C=CCC1(O)CC(n2cc(C)c(=O)[nH]c2=O)OC1CO[Si](C)(C)C(C)(C)C (centres undefined) in this test?
Output: NO

Task: So what was the verdict on `Cn1cnc([N+](=O)[O-])c1Sc1nccc(O)n1` in this test?
Output: NO

Task: So what was the verdict on `COC(=O)C1=C(C)N2[C@H](C(=O)O)CO[C@@]2(C)[C@H](C(=O)OC)[C@H]1c1cccc([N+](=O)[O-])c1` in this test?
Output: NO

Task: So what was the verdict on NP(=O)(OCC1=CC(=O)c2ccccc2C1=O)N(CCBr)CCBr (centres undefined) in this test?
Output: NO

Task: So what was the verdict on COC(=O)CN(CC(=O)NCCCBr)C1CCCCC1N(CC(=O)OC)CC(=O)OC (centres undefined) in this test?
Output: NO

Task: So what was the verdict on `C/C(=C1/N=C(c2cc([N+](=O)[O-])ccc2Cl)N(C2=CC=C(Cl)CC2)C1=O)c1cc2ccccc2oc1=O` in this test?
Output: NO

Task: So what was the verdict on `Cn1sc2ccccc2c1=S` in this test?
Output: NO

Task: So what was the verdict on CC(=O)OC(CCC1(C)OC1COc1ccc(CCNC(=O)C=C(C)C)cc1)C(C)(C)OC(C)=O (centres undefined) in this test?
Output: NO

Task: So what was the verdict on `CCOC(=O)/C=C1\c2ccccc2C(=O)N1CC(=O)OCC` in this test?
Output: NO

Task: So what was the verdict on `Cc1ccc(/C=C2\Cc3cc(C)c(C)cc3C2=O)c(C(=O)O)c1` in this test?
Output: NO

Task: So what was the verdict on O=[N+]([O-])[C@@H]1C2C=CC(C2)[C@H]1Cl (some centres undefined) in this test?
Output: NO

Task: So what was the verdict on COC(=O)[C@@]12C(=O)C=CC(=O)C1C1C(=CC2C)OC2OC3(CCCCC3)OC21 (some centres undefined) in this test?
Output: NO

Task: So what was the verdict on `O=P1(Oc2ccc(Cl)cc2Cl)Oc2ccc3ccccc3c2-c2c(ccc3ccccc23)O1` in this test?
Output: NO

Task: So what was the verdict on `CCN(CC)/C(=C\Cl)Nc1ccccn1.[O-][Cl+3]([O-])([O-])O` in this test?
Output: NO

Task: So what was the verdict on `CNC(=O)Nn1c(SC)nc2ccccc21` in this test?
Output: NO

Task: So what was the verdict on `N=C(c1ccc(-c2cn3cc(C(=N)N4CCCC4)ccc3n2)cc1)N1CCCC1` in this test?
Output: NO

Task: So what was the verdict on COc1ccc2c3c([nH]c2c1[N+](=O)[O-])C(C)N(C)CC3 (centres undefined) in this test?
Output: NO

Task: So what was the verdict on `C/C=C(/C)C(=O)O[C@@H]1c2c(C)coc2C[C@H]2CC[C@H](O)[C@H](C)[C@]21C` in this test?
Output: NO

====

Tested on: COLO 205
Assay: NCI tumour cell line growth inhibition, 48 h
Activity calls are given as the source filed them. No stated cut-off is given here; in the data, active = GI50 up to about 1.1 µM and inactive = higher.
I would appreciate it if you answered using one of these outcomes: yes (active), no (inactive)

Task: So what was the verdict on CC(=O)[C@@]1(C)CC2(CCN(C)CC2)OC1C (stereo partly specified) in this test?
Output: no

Task: So what was the verdict on `N=C(N)N/N=C(\c1ccc(Cl)cc1)C1CC1` in this test?
Output: no

Task: So what was the verdict on O=C1C2CCN(CC2)C1CN1CCOCC1 (stereo unspecified) in this test?
Output: no

Task: So what was the verdict on `C=CCN1C[C@H](C)N([C@H](c2ccc(C(=O)NC(CC)CC)cc2)c2cccc(OC)c2)C[C@H]1C` in this test?
Output: no

Task: So what was the verdict on Cc1ccc([N+](=O)[O-])cc1S(=O)(=O)Nc1ccc(C2=NOC(c3ccco3)C2)cc1 (stereo unspecified) in this test?
Output: no

Task: So what was the verdict on `CCN(CC)C(=S)SS(C)(=O)=O` in this test?
Output: no

Task: So what was the verdict on CC1=C2C(O)C(C(C)CO)C(O)CC2(C)C(O)CC1 (stereo unspecified) in this test?
Output: no

Task: So what was the verdict on `CN(C)C(=O)c1nnsc1NN=O` in this test?
Output: no

Task: So what was the verdict on `Cc1nc2sccn2c1/C=C1/C(=O)Nc2cccc(Cl)c21` in this test?
Output: no

Task: So what was the verdict on O=C1CCC2(CC1CC(Sc1ccccc1)Sc1ccccc1)OCCO2 (stereo unspecified) in this test?
Output: no

Task: So what was the verdict on CCN(CC)C1CC(O[C@H]2C[C@](O)(C(=O)CO)Cc3c(O)c4c(c(O)c32)C(=O)c2c(OC)cccc2C4=O)OC(C)C1O (stereo partly specified) in this test?
Output: yes

====

Tested on: IGROV-1
Test: NCI tumour cell line growth inhibition, 48 h
Activity calls are given as the source filed them. Cut-off read from the data, not from the text of the source: active = GI50 up to about 1.1 µM and inactive = higher.
I would appreciate it if you answered using one of these outcomes: yes (1) (active), no (0) (inactive)

Task: So what was the verdict on `C[n+]1c2ccccc2c(C(=O)Nc2ccc(S(=O)(=O)N=C(N)N)cc2)c2ccccc21` in this test?
Output: no (0)

Task: So what was the verdict on `O=C1OC2(c3ccccc31)c1cc(I)c(O)c(I)c1Oc1c2cc(I)c(O)c1I` in this test?
Output: no (0)

Task: So what was the verdict on `CC(=O)Nc1c2sscc-2n(C)c1=O` in this test?
Output: no (0)

Task: So what was the verdict on `COc1cc(Cn2c3c(c4cc(O)ccc42)C(=O)c2ccccc2C3=O)cc(OC)c1` in this test?
Output: no (0)

Task: So what was the verdict on `O=C1C(Cl)=C(N2CCOCC2)C(=O)c2c(O)ccc(O)c21` in this test?
Output: yes (1)

Task: So what was the verdict on CC(=O)N1C(Nc2ccccn2)CCN1c1ccccc1 (stereo not given) in this test?
Output: no (0)

Task: So what was the verdict on `Nn1c(-c2ccccc2Cl)nc2ccccc2c1=O` in this test?
Output: no (0)

Task: So what was the verdict on `Oc1c(Br)c(-c2ccccc2)nc2ccccc12` in this test?
Output: no (0)

Task: So what was the verdict on COC(=O)/C=C(\C(=O)OC)C1C(=O)Oc2c(C)c(=O)c3ccccc3n21 (stereo not given) in this test?
Output: no (0)

Task: So what was the verdict on CCOC(=O)c1cc(C2CCN(Cc3ccccc3)C2=O)c(C(=O)/C=C(/C)N)[nH]1 (stereo not given) in this test?
Output: no (0)

Task: So what was the verdict on Cc1cc(=O)oc2c(C3=NN(C=O)C(c4ccccc4)C3)c(O)ccc12 (stereo not given) in this test?
Output: no (0)

Task: So what was the verdict on COc1ccccc1NC1Oc2cc3c(cc2C(c2cc(OC)c(OC)c(OC)c2)C1C)OCO3 (stereo not given) in this test?
Output: no (0)

Task: So what was the verdict on CC(=O)OC1COC(Nc2nc(N)n(C)c(=O)c2N=O)C(OC(C)=O)C1OC(C)=O (stereo not given) in this test?
Output: no (0)

Task: So what was the verdict on CC(C)[C@]12O[C@H]1[C@@H]1O[C@]13[C@]1(O[C@H]1C[C@H]1C4=C(CC[C@@]13C)C(=O)OC4)[C@@H]2O [TRIPTOLIDE] in this test?
Output: yes (1)

Task: So what was the verdict on O=C1CCC2(CC1CC(Sc1ccccc1)Sc1ccccc1)OCCO2 (stereo not given) in this test?
Output: no (0)

Task: So what was the verdict on `C=C(C)C(=O)O[C@@H]1C/C(C)=C\[C@H](OC(C)=O)C[C@](C)(O)/C=C2/OC(=O)C(COC(C)=O)=C21` in this test?
Output: yes (1)

Task: So what was the verdict on `CCCNC(=O)c1cc2ccccc2cc1C(=O)OC` in this test?
Output: no (0)

Task: So what was the verdict on O=C1OC(c2ccccc2)=NC1c1ccccc1 (stereo not given) in this test?
Output: no (0)

Task: So what was the verdict on Cc1ccc([N+](=O)[O-])cc1S(=O)(=O)Nc1ccc(C2=NOC(c3ccco3)C2)cc1 (stereo not given) in this test?
Output: no (0)

Task: So what was the verdict on `COc1cc2c(cc1OC)[Se]c1cc(OC)c(OC)cc1[Se]2` in this test?
Output: no (0)
